- Target desc: Pim-2 (Homo sapiens (Human), UniProt Q9P1W9)
- Sequence (Q9P1W9 whole entry): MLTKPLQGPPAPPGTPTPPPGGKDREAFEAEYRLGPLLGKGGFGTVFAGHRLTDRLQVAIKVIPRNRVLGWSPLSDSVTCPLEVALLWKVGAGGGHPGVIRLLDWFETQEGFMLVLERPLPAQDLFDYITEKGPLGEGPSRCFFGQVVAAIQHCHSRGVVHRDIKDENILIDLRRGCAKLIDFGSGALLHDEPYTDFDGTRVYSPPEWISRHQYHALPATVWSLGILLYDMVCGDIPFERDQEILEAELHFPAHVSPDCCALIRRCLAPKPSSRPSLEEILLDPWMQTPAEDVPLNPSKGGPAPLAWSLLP
- Method: Pim enzyme assay (HTRF, 96-well), Pim-2
- Type: biochemical
- Settings: full length recombinant Pim-2, biotinylated-BAD (S112) peptide, 10-point curve, 45 min RT, read-out: Pim-2 IC50 IP
Observation type: pIC50
Kindly note that pIC50 refers to -log10 of the concentration in mol/L and answer with the value alone.

compound=O=c1[nH]cnc2[nH]c(-c3cccc4ccc(Oc5ccccc5)nc34)cc12 recorded_value=7.10

get_value(item= O=C1NCCc2[nH]c(-c3cccc4ccc(Nc5ccccc5)nc34)cc21 , readout=pIC50) returns 8.10

###

- Target desc: Pim-2 (Homo sapiens (Human), UniProt Q9P1W9)
- Method: Pim-Mn enzyme assay (HTRF, 384-well), Pim-2
- Assay type: biochemical
- Settings: Pim-2 enzyme 0.5 pM, ATP 1.5 μM, BAD (S112) 0.5 μM, HTRF, 22-point curve; read-out: Pim-2-Mn IC50 IP
Observation type: pIC50
Kindly note that pIC50 refers to -log10 of the concentration in mol/L and answer with the value alone.

These solved cases illustrate the format of a correct answer.
compound=CC(=O)Nc1nc2c(-c3cc4c([nH]3)CCNC4=O)cccc2nc1C recorded_value=7.70
compound=Cc1nc2cccc(-c3cc4c([nH]3)CCNC4=O)c2nc1N[C@H]1C[C@@H](O)C1 recorded_value=8.85
compound=Cc1nc2cccc(-c3cc4c([nH]3)CCNC4=O)c2nc1NC1(C(F)(F)F)CC1 recorded_value=9.47
compound=Cc1nc2cccc(-c3cc4c([nH]3)CCNC4=O)c2nc1NC1CN(C)C1 recorded_value=5.98
compound=CC(=O)N[C@@H]1CCC[C@H](Nc2nc3c(-c4cc5c([nH]4)[C@@H](C)NC5=O)cccc3nc2C)C1 recorded_value=8.62
compound=CC(C)(C)Nc1cnc2cccc(-c3cc4n(c3)CCNC4=O)c2n1 recorded_value=8.85
compound="CC#CCC1CNC(=O)c2cc(-c3cccc4nc(C)c(F)nc34)[nH]c21 (racemic)" recorded_value=6.15

Field pIC50 (system: Pim-2 (Homo sapiens (Human), UniProt Q9P1W9)) for entry Cc1nc2ccc(F)c(-c3cc4c([nH]3)CCNC4=O)c2nc1NC(C)(C)CO = 9.57

###

- Target desc: Pim-2 (Homo sapiens (Human))
- Method: Pim enzyme assay (HTRF, 96-well), Pim-2
- Type: biochemical
- Settings: full length recombinant Pim-2, biotinylated-BAD (S112) peptide, 10-point curve, 45 min RT, read-out: Pim-2 IC50 IP
Category key, based on recorded IC50: low: < 8 nM; medium: ≥ 8 nM and < 30 nM; high: ≥ 30 nM

Request: Hey, which category is O=C1NCCc2[nH]c(-c3cccc4ccc(OCc5ccccc5)nc34)cc21 in, do you know?
Result: high

###

- System: KMS-12-BM myeloma cell line
- Method: Pim KMS-12 cell assay (phospho-BAD S112 / total BAD, MSD)
- Settings: read-out: KMS-12-BM IC50 IP; KMS-12-BM cells, phospho-BAD (S112) vs total BAD, 1 hour 50 min with compound
IC50 by entry:
Write the figure, then the unit, nothing else.

molecule="CC1CNC(=O)c2cc(-c3cccc4ccc(Nc5ccccc5)nc34)[nH]c21 (single isomer, unassigned) [Example 29]" recorded_value="737 nM"
molecule="COCC(C)(C)Nc1nc2c(-c3cc4c([nH]3)CCNC4=O)cccc2nc1C [Example 66]" recorded_value="215 nM"
molecule="Cc1nc2cccc(-c3cc4c([nH]3)CCNC4=O)c2nc1NC1CCCOC1 (single isomer, unassigned) [Example 209]" recorded_value="268 nM"

Next up:
get_value(item= Cc1nc2cccc(-c3cc4c([nH]3)CCNC4=O)c2nc1N[C@H]1CC[C@@H](N)C1 (single isomer, unassigned) [Example 143] , readout=IC50) returns 440 nM
